Biological target: Ba/F3-FL-TYK2-E957D cells (Homo sapiens, UniProt P29597, E957D, cells depend on it)
Sequence (P29597 whole entry E957D): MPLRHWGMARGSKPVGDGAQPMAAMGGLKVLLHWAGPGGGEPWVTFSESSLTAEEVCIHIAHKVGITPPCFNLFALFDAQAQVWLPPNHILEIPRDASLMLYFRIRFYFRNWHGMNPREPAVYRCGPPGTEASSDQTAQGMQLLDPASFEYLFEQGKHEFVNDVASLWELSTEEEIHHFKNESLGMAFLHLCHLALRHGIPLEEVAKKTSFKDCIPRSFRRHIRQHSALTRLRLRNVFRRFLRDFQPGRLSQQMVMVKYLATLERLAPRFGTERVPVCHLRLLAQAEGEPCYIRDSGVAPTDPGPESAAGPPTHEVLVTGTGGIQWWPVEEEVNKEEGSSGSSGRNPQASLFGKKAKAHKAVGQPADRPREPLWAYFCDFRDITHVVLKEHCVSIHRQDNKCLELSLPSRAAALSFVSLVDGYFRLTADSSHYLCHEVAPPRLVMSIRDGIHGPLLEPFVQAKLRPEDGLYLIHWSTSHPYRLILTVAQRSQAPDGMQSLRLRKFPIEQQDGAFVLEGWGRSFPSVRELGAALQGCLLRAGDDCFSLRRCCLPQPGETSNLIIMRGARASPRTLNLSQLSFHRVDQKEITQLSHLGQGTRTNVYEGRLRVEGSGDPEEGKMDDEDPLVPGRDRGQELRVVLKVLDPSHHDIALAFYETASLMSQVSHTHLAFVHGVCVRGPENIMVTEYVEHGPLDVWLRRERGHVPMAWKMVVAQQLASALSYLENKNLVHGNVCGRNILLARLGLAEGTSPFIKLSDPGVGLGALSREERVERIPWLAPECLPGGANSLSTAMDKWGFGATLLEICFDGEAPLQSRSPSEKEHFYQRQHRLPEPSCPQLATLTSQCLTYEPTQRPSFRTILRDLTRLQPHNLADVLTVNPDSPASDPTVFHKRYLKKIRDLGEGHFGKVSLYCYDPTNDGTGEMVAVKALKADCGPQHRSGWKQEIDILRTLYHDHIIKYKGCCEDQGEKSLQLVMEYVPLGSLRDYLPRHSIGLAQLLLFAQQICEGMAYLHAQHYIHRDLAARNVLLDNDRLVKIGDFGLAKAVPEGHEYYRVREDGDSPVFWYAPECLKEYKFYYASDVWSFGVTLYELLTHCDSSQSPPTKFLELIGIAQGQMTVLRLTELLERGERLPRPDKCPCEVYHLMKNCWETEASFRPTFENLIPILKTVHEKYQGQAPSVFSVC
Assay: Proliferation of Ba/F3-FL-TYK2-E957D cells (CellTiter-Glo)
Assay type: cell-based, mouse
Conditions: 72 hours, read-out: Half maximal inhibitory concentration IC50 for cells Ba/F3-FL-TYK2-E957D
Structures can show the parent of a compound that is named as a salt.
Assignment: determine reported GI50 for the given compounds.
Answers without a unit are incomplete; give the number and then its unit.

Example compounds with recorded GI50:
Query: Fill: GI50 (Ba/F3-FL-TYK2-E957D cells (Homo sapiens, UniProt P29597, E957D, cells depend on it)) for this compound CN=S(=O)(c1ccc(-c2cccc(Nc3cc(NC(=O)C4CC4)nnc3C(=O)NC)c2OC)nc1)C(C)C (stereo not drawn) [Trifluoroacetate of WX-014]
Response: 10.9 nM

Query: Fill: GI50 (Ba/F3-FL-TYK2-E957D cells (Homo sapiens, UniProt P29597, E957D, cells depend on it)) for this compound [2H]C([2H])([2H])NC(=O)c1cnc(NC(=O)C2CC2)cc1Nc1cccc(-c2ccc(S(C)(=O)=NC)cc2)c1OC (stereo not drawn) [Hydrochloride of WX-010]
Response: 12.6 nM

The record that follows has no GI50 shown yet.
Query: Fill: GI50 (Ba/F3-FL-TYK2-E957D cells (Homo sapiens, UniProt P29597, E957D, cells depend on it)) for this compound CNC(=O)c1cnc(NC(=O)C2CC2)cc1Nc1cccc(-c2ncc(S(=O)(=O)N(C)C)cn2)c1OC [Hydrochloride of WX-017]
Response: 4 nM

###

Assay: Pharmacokinetic testing in rats
Type: in vivo, male SD rats
Details: rat, PO 10 mg/kg; read-out: Peak concentration Cmax
Protocol: The objective was to study the pharmacokinetic behavior of the compound of the present disclosure in rats and evaluate the pharmacokinetic characteristics, using male SD rats aged 7 to 9 weeks as test animals. The drug concentrations in plasma at different time points after a single intravenous injection (IV) and oral administration (P0) of the compound were determined using LC/MS/MS. […]
endpoint.label: Cmax
Answers without a unit are incomplete; give the number and then its unit.

Query: Provide only the value of recorded Cmax for CNC(=O)c1nnc(NC(=O)C2CC2)cc1Nc1cccc(-c2ncc(S(=N)(=O)C(C)C)cn2)c1OC.Cl (single isomer, unassigned) [Hydrochloride of WX-011A]
Response: 4.39 µM

###

Molecular target: Ba/F3-FL-TYK2-E957D cells (Homo sapiens, UniProt P29597, E957D, cells depend on it)
Assay: Proliferation of Ba/F3-FL-TYK2-E957D cells (CellTiter-Glo)
Type: cell-based, mouse
Conditions: 72 hours, read-out: Half maximal inhibitory concentration IC50 for cells Ba/F3-FL-TYK2-E957D
Structures can show the parent of a compound that is named as a salt.
Assignment: determine reported GI50 for the given compounds.
Answers are plain numbers, in nM.

Query: Provide only the value of recorded GI50 for CNC(=O)c1nnc(NC(=O)C2CC2)cc1Nc1cccc(-c2ncc(S3(=O)=NCCCC3)cn2)c1OC (stereo not drawn) [Hydrochloride of WX-029]
Response: 3.8

Query: Provide only the value of recorded GI50 for [2H]C([2H])([2H])NC(=O)c1cnc(NC(=O)C2CC2)cc1Nc1cccc(-c2ncc(S(=N)(=O)C(C)C)cn2)c1OC (stereo not drawn) [Trifluoroacetate of WX-009]
Response: 12.1

Query: Provide only the value of recorded GI50 for CNC(=O)c1nnc(NC(=O)C2CC2)cc1Nc1cccc(-c2ccc(S(=N)(=O)C(C)C)cn2)c1OC (single isomer, unassigned) [WX-012A]
Response: 3.3

Query: Provide only the value of recorded GI50 for [2H]C([2H])([2H])NC(=O)c1cnc(NC(=O)C2CC2)cc1Nc1cccc(-c2ncc(S(=O)(=O)N(C)C)cn2)c1OC
Response: 2.2

Query: Provide only the value of recorded GI50 for COc1c(Nc2cc(NC(=O)C3CC3)nnc2C(N)=O)cccc1-c1ccc(S(=N)(=O)C(C)C)cn1 (stereo not drawn) [Hydrochloride of WX-032]
Response: 2.9

---
Query: Provide only the value of recorded GI50 for CNC(=O)c1nnc(NC(=O)C2CC2)cc1Nc1cccc(-c2ncc(S(=N)(=O)C3CC3)cn2)c1OC (stereo not drawn)
Response: 4

###

Assay: Pharmacokinetic testing in rats
Assay type: in vivo, male SD rats
Conditions: male, SD, plasma; rat, IV 3 mg/kg; read-out: Half-life T1/2 (converted)
endpoint.label: half-life (min)
One number for each entry, in min.

Query: Provide only the value of recorded half-life for CNC(=O)c1cnc(NC(=O)C2CC2)cc1Nc1cccc(-c2ccc(S(=O)(=O)C(C)C)cn2)c1OC
Response: 54

###

Test: Pharmacokinetic testing in rats
Type: in vivo, male SD rats
Details: male, SD, plasma; rat, PO 10 mg/kg; read-out: Area under the curve AUC0-last
endpoint.label: AUC(0-t) (µM·h)
Numbers only, in µM·h.

Query: Provide only the value of recorded AUC(0-t) for CNC(=O)c1cnc(NC(=O)C2CC2)cc1Nc1cccc(-c2ccc(S(=O)(=O)C(C)C)cn2)c1OC
Response: 9.76

###

Test: Pharmacokinetic testing in mice
Assay type: in vivo, male CD-1 mice
Conditions: male, CD-1, plasma; mouse, PO 10 mg/kg; read-out: Time to peak concentration Tmax
endpoint.label: Tmax (min)
Give bare numbers, in min.

Example molecules with recorded Tmax:
Query: Provide only the value of recorded Tmax for CNC(=O)c1cnc(NC(=O)C2CC2)cc1Nc1cccc(-c2ncc(S(=O)(=O)C(C)C)cn2)c1OC [WX-019]
Response: 48

Query: Provide only the value of recorded Tmax for CNC(=O)c1nnc(NC(=O)C2CC2)cc1Nc1cccc(-c2ncc(S(=N)(=O)C(C)C)cn2)c1OC (stereo not shown) [WX-011]
Response: 30

Query: Provide only the value of recorded Tmax for CNC(=O)c1nnc(NC(=O)C2CC2)cc1Nc1cccc(-c2ccc(S(=N)(=O)C(C)C)cn2)c1OC (stereo not shown) [WX-012]
Response: 18

The record that follows has no Tmax shown yet.
Query: Provide only the value of recorded Tmax for CNC(=O)c1nnc(NC(=O)C2CC2)cc1Nc1cccc(-c2ccc(P(=O)(C3CC3)C3CC3)cn2)c1OC [WX-021]
Response: 18

###

Assay: Pharmacokinetic testing in rats
Assay type: in vivo, male SD rats
Settings: male, SD, plasma; rat, IV 3 mg/kg; read-out: Apparent volume of distribution Vd
endpoint.label: Vd (L/kg)
One number for each entry, in L/kg.

Query: Provide only the value of recorded Vd for CNC(=O)c1cnc(NC(=O)C2CC2)cc1Nc1cccc(-c2ccc(S(=O)(=O)C(C)C)cn2)c1OC
Response: 0.9

###

Test system: TYK2 signaling pathway (IFN-α/pSTAT1)
Experiment: IFN-α-induced STAT1 phosphorylation in mouse whole blood
Format: cell-based
Settings: CD3+ cells
Assignment: determine reported pIC50 for the given compounds.
Give bare numbers, as −log10 of the molar value.

Example compounds with recorded pIC50:
Query: Provide only the value of recorded pIC50 for CNC(=O)c1nnc(NC(=O)C2CC2)cc1Nc1cccc(-c2ccc(S(=N)(=O)C(C)C)cn2)c1OC (single isomer, unassigned) [WX-012B]
Response: 6.38

Query: Provide only the value of recorded pIC50 for CNC(=O)c1nnc(NC(=O)C2CC2)cc1Nc1cccc(-c2ncc(S(=N)(=O)C(C)C)cn2)c1OC (single isomer, unassigned) [WX-011A]
Response: 6.83

Query: Provide only the value of recorded pIC50 for CNC(=O)c1cnc(NC(=O)C2CC2)cc1Nc1cccc(-c2ccc(S(=O)(=O)C(C)C)cn2)c1OC [WX-020]
Response: 6.43

Query: Provide only the value of recorded pIC50 for CNC(=O)c1nnc(NC(=O)C2CC2)cc1Nc1cccc(-c2ncc(S(=N)(=O)C(C)C)cn2)c1OC (single isomer, unassigned) [WX-011B]
Response: 6.43

Query: Provide only the value of recorded pIC50 for COc1c(Nc2cc(NC(=O)C3CC3)ncc2C(N)=O)cccc1-c1ccc(S(=O)(=O)C(C)C)cn1 [Trifluoroacetate of WX-034]
Response: 7.03

For every record below, what is its pIC50?
1. COc1c(Nc2cc(NC(=O)C3CC3)ncc2C(N)=O)cccc1-c1ncc(S(=O)(=O)C(C)C)cn1 [WX-033]
2. CNC(=O)c1nnc(NC(=O)C2CC2)cc1Nc1cccc(-c2ccc(P(=O)(C3CC3)C3CC3)cn2)c1OC [WX-021]
3. CNC(=O)c1cnc(NC(=O)C2CC2)cc1Nc1cccc(-c2ncc(S(=O)(=O)C(C)C)cn2)c1OC [WX-019]

Response:
1: 6.50; 2: 6.34; 3: 6.37

###

Assignment: determine reported pIC50 for the given compounds.
Test system: JAK1/2 signaling pathway (IL-6/pSTAT3)
Assay: IL-6-induced STAT phosphorylation in human whole blood
Type: cell-based
Description: The purpose of this experiment was to detect the inhibitory effect of the compound on the JAK-STAT signaling pathway activated by cytokines in human whole blood or platelet-rich plasma. Fresh human whole blood/platelets were placed in a 96-well plate. […] The corresponding STAT phosphorylation levels in different cell populations were analyzed using flow cytometer by means of surface antibody staining and intracellular phosphorylated antibody staining. […] Data were analyzed using FlowJo software. […]
Numbers only, as −log10 of the molar value.

Query: Provide only the value of recorded pIC50 for CNC(=O)c1cnc(NC(=O)C2CC2)cc1Nc1cccc(-c2ncc(S(=O)(=O)C(C)C)cn2)c1OC [WX-019]
Response: 4.47

The record that follows has no pIC50 shown yet.
Query: Provide only the value of recorded pIC50 for CNC(=O)c1nnc(NC(=O)C2CC2)cc1Nc1cccc(-c2ncc(S(=N)(=O)C(C)C)cn2)c1OC (single isomer, unassigned) [WX-011A]
Response: 4.97
